- test-protocol: Dissolution profiles of flupirtine acid addition salts in ethanol (compacted substance)
- Type: physicochemical
- condition-parameters: 30 min; 100 mg compacted, 1000 ml ethanol, 37° C., basket 50 UpM
quantity: Amount of substance dissolved (mg)
Value expressed in mg; do not type the unit.

Illustrative cases are given below, each with its answer.
compound	Amount of substance dissolved (mg)
CCOC(=O)Nc1ccc(NCc2ccc(F)cc2)nc1N.O=C(O)/C=C\C(=O)O [Flupirtine maleate A, Flupirtine Maleate Form A, reference compound]	14.3
CC(=O)O.CCOC(=O)Nc1ccc(NCc2ccc(F)cc2)nc1N [Flupirtine acetate]	108.3
CCOC(=O)Nc1ccc(NCc2ccc(F)cc2)nc1N [Flupirtine propionate]	110.9

Now for the compound whose Amount of substance dissolved we want.
# input Value lookup for Amount of substance dissolved; key = CCOC(=O)Nc1ccc(NCc2ccc(F)cc2)nc1N.O=C(O)/C=C\C(=O)O [Flupirtine maleate B, Flupirtine Maleate Form B, reference compound]
# output 27.4

---

- test-protocol: Dissolution profiles of flupirtine acid addition salts in ethanol (compacted substance)
- Format: physicochemical
- condition-parameters: 20 min; 100 mg compacted, 1000 ml ethanol, 37° C., basket 50 UpM
Decide by Amount of substance dissolved: equal to or exceeding 100 mg means condition met, less means condition not met.

Worked set:
compound	assigned-category
CCOC(=O)Nc1ccc(NCc2ccc(F)cc2)nc1N.O=C(O)/C=C\C(=O)O [Flupirtine maleate A, Flupirtine Maleate Form A, reference compound]	condition not met
CCOC(=O)Nc1ccc(NCc2ccc(F)cc2)nc1N.O=C(O)C(F)(F)F [Flupirtine triflutate, Flupirtine Triflutate]	condition met
CCOC(=O)Nc1ccc(NCc2ccc(F)cc2)nc1N.O=C(O)/C=C\C(=O)O [Flupirtine maleate B, Flupirtine Maleate Form B, reference compound]	condition not met
CCOC(=O)Nc1ccc(NCc2ccc(F)cc2)nc1N [Flupirtine propionate]	condition met

Turning now to a further compound:
# input Determine whether this compound has Amount of substance dissolved no lower than 100 mg: CC(=O)O.CCOC(=O)Nc1ccc(NCc2ccc(F)cc2)nc1N [Flupirtine acetate]
# output condition not met

---

- test-protocol: Dissolution profiles of flupirtine acid addition salts in ethanol (compacted substance)
- Format: physicochemical
- condition-parameters: 60.25 min; 100 mg compacted, 1000 ml ethanol, 37° C., basket 50 UpM
- Experimental: The dissolution in Ethanol was measured using compacted substance. 100 mg substance was compacted using a hydraulic press. Diameter of cake: 8.9 mm; pressure 20 kp/cm^2 for 15 sec. Liberation parameter: Basket, 50 UpM, 1000 ml medium 37° C. […] At given time points 5.0 ml solution were taken and measured vs. reference at 244 nm at a spectral photometer. […] The amount of liberated substance at given time points was calculated using a response factor (absorption/mg substance). […]
quantity: Amount of substance dissolved (mg)
Value expressed in mg; do not type the unit.

Illustrative cases are given below, each with its answer.
molecule	Amount of substance dissolved / mg
CCOC(=O)Nc1ccc(NCc2ccc(F)cc2)nc1N.O=C(O)/C=C\C(=O)O [Flupirtine maleate A, Flupirtine Maleate Form A, reference compound]	24.2
CCOC(=O)Nc1ccc(NCc2ccc(F)cc2)nc1N [Flupirtine propionate]	112.2
CC(=O)O.CCOC(=O)Nc1ccc(NCc2ccc(F)cc2)nc1N [Flupirtine acetate]	99.7

Now for the molecule whose Amount of substance dissolved we want.
# input Value lookup for Amount of substance dissolved; key = CCOC(=O)Nc1ccc(NCc2ccc(F)cc2)nc1N.O=C(O)/C=C\C(=O)O [Flupirtine maleate B, Flupirtine Maleate Form B, reference compound]
# output 69.5
